- testMethodNotes: soluble on expression in E. coli; label from the status in PepcDB or PDB records
readoutLabel: soluble on expression in E. coli

[
  {
    "monomerSequence": "MEALAMAGVDYQEWGLSIEEWELQESVVPLHLLADDFKEEEQEEDHQDNDDDDRVLDGLAVKQSVTRDIRASVGKFIEQSMSHMIVHLKQLKFLTLLLENFLFTHVLDFLL",
    "soluble on expression in E. coli": "not soluble"
  },
  {
    "monomerSequence": "MGSDKIHHHHHHMNNLYPYGAPDSNLYARKQEEYDQQIAEAILAGIKREATAIELYRRLADEAPSEQHQHDIRQALENKQASLTQFTNAYRILTGQQPQLEVDDVSFYRFHEGLQKAYEIEVEGYEEYERSSALTENPHVQHAFWTALNTEYENTTRLYRSLHEEADHRVTDHGPRPFVVNIEDETKRNRAFRRALWTGDHLQVTLMSIQVGEDIGLEIHPHLDQFLRVEEGRGLVQMGHRQDNLHFQEEVFDDYAILIPAGTWHNVRNTGNRPLKLYSIYAPPQHPHGTVHETKAIAMAAEEHHHL",
    "soluble on expression in E. coli": "not soluble"
  },
  {
    "monomerSequence": "MSLEPSVTGPSEAPVLDTAWMKAVPSVRPVPAGSAAEALEALAVKGRAADDSYERTAFGQAWLDVDRNGCDTRNDILRRDLAGVQFTEGSRCRVAGGEFHEPYTGAVVTFTRGAESSKAVQIDHVVALGDAWQKGAQQLTPQQRQSLANDPLNLVAADGPANQEKSASDAASWLPKNKTFRCHYVARQISVKAAYGLWVTQPEKDAMKRVLDSCPQQQTVMPREGHHHHHH",
    "soluble on expression in E. coli": "soluble"
  },
  {
    "monomerSequence": "METFTVKMGADSGLLQFEPANVTVHPGDTVKWVNNKLPPHNILFDDKQVPGASKELADKLSHSQLMFSPGESYEITFSSDFPAGTYTYYCAPHRGAGMVGKITVEG",
    "soluble on expression in E. coli": "soluble"
  },
  {
    "monomerSequence": "MYTAIVNLKTYREATGANFTRFMEKFEPVQGKFELIFSPSLLDLEKAAKCGKFRFFAQHVDAEPYGAYTGHVPMDMMIDLGITGSILNHSERRLPRDTIINTLKKASKLDFTIVLCVENAEEAKYFREYEPDFIAYEPRDLIGGDVSVSTAKPEIIEDIVKIYEGTGTSVLVGAGIKTGEDVRRSIGLGARGILVASGVVKSADPTKSLNSLIELK",
    "soluble on expression in E. coli": "not soluble"
  },
  {
    "monomerSequence": "MGSDKIHHHHHHMNPADNILWGNIIKVHGVKGEVLVQVFSDDLTDYETLESVFVEIKQKQIPFFLSTFNFATQKRCILSFEDVTTVEQAKPLVGADIYIPVSKMAEADESRLSYQAIIGFEVMDTIQGKLGVISNFFQKTGQDLLMMDYQDAEILIPVTEEIVHSVDVKTKQVITTLPEGLIEIYLNEDASEPDAD",
    "soluble on expression in E. coli": "not soluble"
  },
  {
    "monomerSequence": "MTESTTSSPHDAVFKTFIFTPETARDFLEIHLPEPLRKLCNLQTLRLEPTSFIEKSLRAYYSDVLWSVETSDGDGYIYCVIEHQSSAEKNMAFRPMRYATAAMQSHLDKGYDRVPLVVPLLFYHGETSPYPYSLNWLDEFDDPQLARQLYTEAFPLVDITIVPDDEIMQHRRIALLELIQKHIRDHDLIGMVDRITTLLVRGFTNDSQLQTLFNYLLQCGDTSRFTRFIQEIAERSPLQKERLMTIAERLRQEGHQIGWQEGKLVGLQQGKLEGLQEGMHEQAIKIALRMLEQGIDRDQVLAATQLSEADLAANNH",
    "soluble on expression in E. coli": "not soluble"
  },
  {
    "monomerSequence": "MGSDKIHHHHHHMKIILGIPDLKIPVWTFKQPLMINQLNWDRPSWENETWVDSGGYQIMVRGIKVEIEKVVEKYKILDATQYMSLDIPSIPCHKPSELNYKYFEYLYTVFDKKIVPVIHAYDPESIKKSIDFYSQYTDLVAFGGIVPPTLNKSGNKKLAVAIYYLVRKLWKGKIHVLGAGSPFMRKVYFNADSVDTSTYRVKGIHGMVIIPGKGERYVGNRKIVWGTKRASEEELEILLSFLDKTHYPFQIRFDNWIDRSLINAWVLLNSEYESNNPLIRYSKKLDTFAEDEIEEEVNELCM",
    "soluble on expression in E. coli": "not soluble"
  },
  {
    "monomerSequence": "MGSDKIHHHHHHMTDLGLYRHLDQMAPWNDRLQVLEVIGVSDEAPDVKTFTFRSDNQTWFRYKPGQFVTLELPTPDGPLMRTYTLSSSPSRPFSIAVTVKAQAGSIGTRWMFDHLVPGSHVKAYGPSGDFSLHSHPAAKYLFISAGSGVTPMMSMLRWLNDCAPWTDVGFVNCARRPEEIIFRKELELLGGHMPGLSLGFMIEERSSREGWYGHMGRIDAIRLPLLAPDFREREIFCCGPDPFMRAVRGMLEAAGFDMTKYHQESFAAPAVEEVPAPFVSPGEDGVTVPVEATPIRFALSVVDAECVAGQTVLQTARASGVRIPAACEFGLCGTCKVKKVSGAVEMSHNGGILDHEIDDGFILACCSKPLSALEIEA",
    "soluble on expression in E. coli": "not soluble"
  },
  {
    "monomerSequence": "MGSDKIHHHHHHAIGFGLSYGTEIESIGLGLKYQYNITNPIRLEPSLNYFIENDNVSMLDINMNLHYLCPVGRSVKLYPLFGFTFSNWMFDLGDGFDIDVDGDHIHIDKDDDNHNECRVGVNIGGGADFALTSSWIMNFELRYQLVSDFDQAVFNLGFAYRF",
    "soluble on expression in E. coli": "not soluble"
  }
]

List soluble on expression in E. coli for every entry below, keeping the order given.
1. MGSDKIHHHHHHMAQQDRLQQMREWIKTTPEISLDQLMGEYRISRDTARRDLIQLEREGKIIRVKNGLIRVGTNTTIQYDRRTEQPEKNRIAKHAVRYVQPDQTIILDAASTVARMTVHLPAQPIQIITNALAVVEQLEARPEIDLYVTGGKWDRHARSLVGIKTADDILNYQVDRVFLGACGLTEQGVFAENLEEAIVKKAMIRSSAEVIVLADHTKFEKRFLHKVCDLDQIDILITDERPTEQWQKWLQEADILLETAEEE
2. MTEPLTETPELSAKYAWFFDLDGTLAEIKPHPDQVVVPDNILQGLQLLATASDGALALISGRSMVELDALAKPYRFPLAGVHGAERRDINGKTHIVHLPDAIARDISVQLHTVIAQYPGAELEAKGMAFALHYRQAPQHEDALMTLAQRITQIWPQMALQQGKCVVEIKPRGTSKGEAIAAFMQEAPFIGRTPVFLGDDLTDESGFAVVNRLGGMSVKIGTGATQASWRLAGVPDVWSWLEMITTALQQKRENNRSDDYESFSRSILEHHHHHH

(A)
["not soluble", "not soluble"]

* * *

- testMethodNotes: soluble on expression in E. coli; label from the status in PepcDB or PDB records

[
  {
    "monomerSequence": "GRGSEHLTIGFKVENAHDRILKTIKTHKLKNYIKESVNFLNSGLTKTNYLGSSNDNIELVDFQNIMFYGDAEVGDNQQPFTFILDTGSANLWVPSVKCTTAGCLTKHLYDSSKSRTYEKDGTKVEMNYVSGTVSGFFSKDLVTVGNLSLPYKFIEVIDTNGFEPTYTASTFDGILGLGWKDLSIGSVDPIVVELKNQNKIENALFTFYLPVHDKHTGFLTIGGIEERFYEGPLTYEKLNHDLYWQITLDAHVGNIMLEKANCIVDSGTSAITVPTDFLNKMLQNLDVIKVPFLPFYVTLCNNSKLPTFEFTSENGKYTLEPEYYLQHIEDVGPGLCMLNIIGLDFPVPTFILGDPFMRKYFTVFDYDNHSVGIALAKKNL",
    "soluble on expression in E. coli": "soluble"
  },
  {
    "monomerSequence": "MSATFSPTAVTDLKDIQDVERLMGRIKEARAAVGEVIFGQEAVVDEVLVTLLAGGHALLIGLPGLAKTKLVQTLGTVVGLRDKRVQFTPDLMPADILGSEVLEEDAAGQRGFRFLPGPVFCQLLMADEINRASPRTQSALLQAMQEHRVSVAGHYHDLPAPFHVLATQNPIEQEGTYPLPEAQLDRFLMQVDVGYPDEAAERRMLAATTGVHQPEARAVMTPAELQAAQALVRRVPVGDSVVDAILSLVRAGRPESSPLPEVRDWVAWGPGPRASQALTLAVRARALLDGRFAPSIEDVIALAHPILRHRMALSFGARADGVTLGRVVDRLIDKIA",
    "soluble on expression in E. coli": "soluble"
  }
]
